Tested on: non-cancerous MCF10A breast cell line
Assay name: MTT in vitro cytotoxicity assay, MCF10A
Format: cell-based
Condition info: 72 h drug exposure, n = 3, read-out: GI50 ± SEM, MCF10A
Experimental: The in vitro cytotoxicity assays were undertaken at Calvary Mater Hospital, Waratah, NSW, Australia, following a method previously published in the literature. A stock solution for each compound was prepared in DMSO (30 mM) and stored at −20 °C. […] The growth inhibitory effects were evaluated after 72 h drug exposure, using the MTT (3-(4,5-dimethylthiazol-2-yl)-2,5-diphenyltetrazolium bromide) assay, with the absorbance read at 540 nm. […]
# key: entry, value: GI50
# value in nM; strip the unit string

Below, 2 compounds whose answers are already recorded.
Cc1c(C)c2ccc[n+]3c2c2c1ccc[n+]2[Pt-2]31([OH])([O]C(=O)CCCC[C@@H]2SC[C@@H]3NC(=O)N[C@@H]32)[NH2+][C@H]2CCCC[C@@H]2[NH2+]1.O=[N+]([O-])[O-].O=[N+]([O-])[O-]
14
Cc1cc2ccc[n+]3c2c2c1ccc[n+]2[Pt-2]31([OH])([O]C(=O)CCCC[C@@H]2SC[C@@H]3NC(=O)N[C@@H]32)[NH2+][C@H]2CCCC[C@@H]2[NH2+]1.O=[N+]([O-])[O-].O=[N+]([O-])[O-]
31

Now for the compound whose GI50 we want.
Sample `Cc1cc2ccc[n+]3c2c2c1ccc[n+]2[Pt-2]31([OH])([OH])[NH2+][C@H]2CCCC[C@@H]2[NH2+]1.O=[N+]([O-])[O-].O=[N+]([O-])[O-]` ; GI50 observed: 220

* * *

# key: entry, value: GI50
Test system: H460 lung cancer cells
Assay name: MTT in vitro cytotoxicity assay, H460
Type: cell-based
Condition info: 72 h drug exposure, n = 3, read-out: GI50 ± SEM, H460
# value in nM; strip the unit string

Below, 3 compounds whose answers are already recorded.
Cc1cc2ccc[n+]3c2c2c1ccc[n+]2[Pt-2]31[NH2+][C@H]2CCCC[C@@H]2[NH2+]1.[Cl-].[Cl-]
41
COc1cc[n+]2c3c1ccc1c(OC)cc[n+](c13)[Pt-2]21([OH])([OH])[NH2+][C@H]2CCCC[C@@H]2[NH2+]1.O=[N+]([O-])[O-].O=[N+]([O-])[O-]
3100
COc1cc[n+]2c3c1ccc1c(OC)cc[n+](c13)[Pt-2]21[NH2+][C@H]2CCCC[C@@H]2[NH2+]1.[Cl-].[Cl-]
500

Now for the compound whose GI50 we want.
Sample `Cc1cc2ccc[n+]3c2c2c1ccc[n+]2[Pt-2]31([OH])([OH])[NH2+][C@H]2CCCC[C@@H]2[NH2+]1.O=[N+]([O-])[O-].O=[N+]([O-])[O-]` ; GI50 observed: 180

* * *

Tested on: U87 glioblastoma cells
Assay name: MTT in vitro cytotoxicity assay, U87
Format: cell-based
Condition info: 72 h drug exposure, n = 3, read-out: GI50 ± SEM, U87
Criterion: GI50 strictly less than 300 nM. Met: true (1). Not met: false (0).

COc1cc[n+]2c3c1ccc1c(OC)cc[n+](c13)[Pt-2]21([OH])([OH])[NH2+][C@H]2CCCC[C@@H]2[NH2+]1.O=[N+]([O-])[O-].O=[N+]([O-])[O-]
false (0)
COc1cc[n+]2c3c1ccc1c(OC)cc[n+](c13)[Pt-2]21([OH])([O]C(=O)CCCC[C@@H]2SC[C@@H]3NC(=O)N[C@@H]32)[NH2+][C@H]2CCCC[C@@H]2[NH2+]1.O=[N+]([O-])[O-].O=[N+]([O-])[O-]
false (0)
O=C(O)CCCC[C@@H]1SC[C@@H]2NC(=O)N[C@@H]21
false (0)
COc1cc[n+]2c3c1ccc1c(OC)cc[n+](c13)[Pt-2]21[NH2+][C@H]2CCCC[C@@H]2[NH2+]1.[Cl-].[Cl-]
false (0)
Cc1cc2ccc[n+]3c2c2c1ccc[n+]2[Pt-2]31([OH])([OH])[NH2+][C@H]2CCCC[C@@H]2[NH2+]1.O=[N+]([O-])[O-].O=[N+]([O-])[O-]
false (0)

Strictly below 300 nM: is that where GI50 of `Cc1cc2ccc[n+]3c2c2c1ccc[n+]2[Pt-2]31([OH])([O]C(=O)CCCC[C@@H]2SC[C@@H]3NC(=O)N[C@@H]32)[NH2+][C@H]2CCCC[C@@H]2[NH2+]1.O=[N+]([O-])[O-].O=[N+]([O-])[O-]` sits? true (1)

Entry source: paper PMC9853328
